Where these numbers come from: paper PMC3809513

# experimentalSystem: PfCDPK1 (Plasmodium falciparum)
# Sequence (P62344 whole entry): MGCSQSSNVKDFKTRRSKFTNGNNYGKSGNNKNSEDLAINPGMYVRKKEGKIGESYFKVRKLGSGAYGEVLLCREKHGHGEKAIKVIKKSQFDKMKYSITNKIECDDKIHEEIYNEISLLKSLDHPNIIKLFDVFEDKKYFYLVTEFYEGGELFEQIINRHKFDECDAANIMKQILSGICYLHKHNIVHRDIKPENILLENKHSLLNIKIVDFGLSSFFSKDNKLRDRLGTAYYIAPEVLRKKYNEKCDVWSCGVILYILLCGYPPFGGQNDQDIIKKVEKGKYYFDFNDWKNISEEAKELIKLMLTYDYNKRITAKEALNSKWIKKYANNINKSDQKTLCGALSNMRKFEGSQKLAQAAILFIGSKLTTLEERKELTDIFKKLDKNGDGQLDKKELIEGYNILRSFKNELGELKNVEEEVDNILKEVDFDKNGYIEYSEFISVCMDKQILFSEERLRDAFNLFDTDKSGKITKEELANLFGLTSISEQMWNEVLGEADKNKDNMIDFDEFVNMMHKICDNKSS
pIC50: −log10 of the molar value.
I would appreciate it if you labelled entries Condition met when pIC50 is 7 or higher, otherwise Condition not met.

Below, 5 compounds whose answers are already recorded.
[[record]]
compound = "Cc1nn(-c2ccccc2)cc1-c1cnc2ccc(NC3CCN(C)CC3)nn12"
class = "Condition not met"

[[record]]
compound = "Fc1ccc(-n2cc(-c3cnn4ccc(C5CCCNC5)nc34)cn2)cc1 (stereo not drawn)"
class = "Condition not met"

[[record]]
compound = "c1ccc(-n2cc(-c3cnc4ccc(NC5CCNCC5)nn34)cn2)cc1"
class = "Condition met"

[[record]]
compound = "CN1CCC(Nc2ccc3ncc(-c4cnn(-c5ccc(C#N)cc5)c4)n3n2)CC1"
class = "Condition not met"

[[record]]
compound = "CN1CCC(Nc2ccc3ncc(-c4cnn(-c5cccc(C#N)c5)c4)n3n2)CC1"
class = "Condition not met"


Task item: Form field: pIC50 at least 7? Entry: N[C@H]1CC[C@H](Nc2ccc3ncc(-c4cnn(-c5ccc(F)cc5)c4)n3n2)CC1
Reply: Condition met

Task item: Form field: pIC50 at least 7? Entry: CN1CCC(Nc2ccc3ncc(-c4cnn(-c5ncc(F)cn5)c4)n3n2)CC1
Reply: Condition not met

Task item: Form field: pIC50 at least 7? Entry: CN1CCC(Oc2ccc3ncc(-c4cnn(-c5ccc(F)cc5)c4)n3n2)CC1
Reply: Condition not met

Task item: Form field: pIC50 at least 7? Entry: CN1CCC(Nc2ccc3ncc(-c4cnn(-c5cnccn5)c4)n3n2)CC1
Reply: Condition met

Task item: Form field: pIC50 at least 7? Entry: CN1CCCC(c2ccn3ncc(-c4cnn(-c5ccc(F)cc5)c4)c3n2)C1 (stereo not drawn)
Reply: Condition not met

---

# assayDetails: PAMPA passive permeability
# Assay type: in vitro ADME
# conditionParameters: 5 hours at room temperature
outcomeMeasure: Papp at 5 h, up to 200 µM (×10⁻⁶ cm/s)
Write the number in ×10⁻⁶ cm/s without appending the unit.

Some molecules with recorded Papp at 5 h, up to 200 µM:
[[record]]
molecule = "N[C@H]1CC[C@H](Nc2ccc3ncc(-c4cnn(-c5ccc(F)cc5)c4)n3n2)CC1 [Compound 29]"
outcomemeasure = "Papp at 5 h, up to 200 µM"
measurement = 4.3

[[record]]
molecule = "CN1CCC(Nc2ccc3ncc(-c4cnn(-c5cnccn5)c4)n3n2)CC1 [Compound 26]"
outcomemeasure = "Papp at 5 h, up to 200 µM"
measurement = 0.05

[[record]]
molecule = "Fc1ccc(-n2cc(-c3cnc4ccc(N[C@H]5CC[C@H](N6CCCC6)CC5)nn34)cn2)cc1 [Compound 30]"
outcomemeasure = "Papp at 5 h, up to 200 µM"
measurement = 10.4

[[record]]
molecule = "c1ccc(-n2cc(-c3cnc4ccc(NC5CCNCC5)nn34)cn2)cc1 [Compound 12]"
outcomemeasure = "Papp at 5 h, up to 200 µM"
measurement = 2.3

[[record]]
molecule = "Fc1ccc(-n2cc(-c3cnn4ccc(C5CCCNC5)nc34)cn2)cc1 (stereo not drawn) [Compound 34]"
outcomemeasure = "Papp at 5 h, up to 200 µM"
measurement = 21.7


We now examine a further molecule.
molecule CN1CCC(Oc2ccc3ncc(-c4cnn(-c5ccc(F)cc5)c4)n3n2)CC1 [Compound 31] , Papp at 5 h, up to 200 µM observed: 21.4
